The reported measurements were obtained from patent US9040547B2.

Target Or System: EGFR L858R+T790M, endogenous (Homo sapiens, UniProt P00533, L858R/T790M)
Construct: NCI-H1975 (EGFR L858R+T790M, endogenous); host or cells: NCI-H1975
Sequence (P00533 25-1210 T790M/L858R): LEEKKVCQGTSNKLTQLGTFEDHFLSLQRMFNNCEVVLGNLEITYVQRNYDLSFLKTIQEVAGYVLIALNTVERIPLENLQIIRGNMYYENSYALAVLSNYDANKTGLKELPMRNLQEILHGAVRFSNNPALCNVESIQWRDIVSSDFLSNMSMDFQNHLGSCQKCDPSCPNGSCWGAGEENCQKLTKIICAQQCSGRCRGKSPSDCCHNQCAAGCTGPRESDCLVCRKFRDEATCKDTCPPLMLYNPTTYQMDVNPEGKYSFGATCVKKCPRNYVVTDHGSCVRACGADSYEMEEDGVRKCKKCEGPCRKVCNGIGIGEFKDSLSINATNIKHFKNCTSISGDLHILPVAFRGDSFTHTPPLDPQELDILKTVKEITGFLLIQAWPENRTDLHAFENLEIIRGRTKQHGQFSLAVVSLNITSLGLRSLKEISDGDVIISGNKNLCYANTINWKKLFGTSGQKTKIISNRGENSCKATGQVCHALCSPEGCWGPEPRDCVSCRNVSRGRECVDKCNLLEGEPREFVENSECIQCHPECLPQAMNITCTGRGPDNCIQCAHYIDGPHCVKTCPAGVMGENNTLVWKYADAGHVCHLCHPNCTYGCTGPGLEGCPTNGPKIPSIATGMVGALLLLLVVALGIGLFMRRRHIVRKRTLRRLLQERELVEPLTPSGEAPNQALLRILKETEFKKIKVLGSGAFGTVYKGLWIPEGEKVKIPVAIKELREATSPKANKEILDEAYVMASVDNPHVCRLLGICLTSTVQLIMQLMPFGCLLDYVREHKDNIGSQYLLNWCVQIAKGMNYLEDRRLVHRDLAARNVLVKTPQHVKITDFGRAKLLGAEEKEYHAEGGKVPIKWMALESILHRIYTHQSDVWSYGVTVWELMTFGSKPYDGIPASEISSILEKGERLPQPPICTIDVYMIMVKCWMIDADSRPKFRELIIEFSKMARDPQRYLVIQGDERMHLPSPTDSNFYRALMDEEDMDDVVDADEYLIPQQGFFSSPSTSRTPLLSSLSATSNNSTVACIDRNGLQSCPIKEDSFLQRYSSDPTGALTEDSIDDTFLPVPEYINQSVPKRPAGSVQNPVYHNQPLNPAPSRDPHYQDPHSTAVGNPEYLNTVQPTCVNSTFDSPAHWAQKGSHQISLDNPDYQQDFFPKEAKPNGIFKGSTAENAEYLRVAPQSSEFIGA
Assay Comment: pEGFR Y1068 ELISA assay, NCI-H1975 cells;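 also: sandwich ELISA of endogenous phospho-EGFR (Tyr1068) in lysates of treated cells, 11-point 1:3 serial dilution tested in duplicate per plate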
Assay type: cell-based
Applied Conditions: value marked (H1975): NCI-H1975 cells, 2 hrs compound treatment; read-out: pEGFRY1068 ELISA3T3T790M—L858R IC50 (nM), (H1975)
Experimental Endpoint: IC50 (nM)

Solved entries (count: 3):
Summary for this molecule, C=CC(=O)N1C[C@H](COc2nc(Nc3cn(CC#N)nc3C)nc3[nH]cc(Cl)c23)[C@@H](OC)C1 [Example 115] : IC50 is 73

# molecule C=CC(=O)N[C@H]1CC[C@@H](Oc2nc(Nc3cnn(C)c3)nc3[nH]cc(Cl)c23)C1 [Example 77] ; its IC50 = 301

Entry C=CC(=O)N[C@]1(C)C[C@@H](Oc2nc(Nc3cnn(C)c3)nc3[nH]cc(Cl)c23)C1 [Example 113] — recorded IC50 = 457

a = C=CC(=O)N(C)[C@H]1C[C@H](Oc2nc(Nc3cnn(C)c3)nc3[nH]cc(-c4cnn(C)c4)c23)C1 [Example 95]
b = C=CC(=O)N1C[C@H](COc2nc(Nc3cnn(CC#N)c3)nc3[nH]cc(Cl)c23)[C@@H](OC)C1 [Example 93]
c = C=CC(=O)N(C)[C@H]1C[C@H](Oc2nc(Nc3cnn(C)c3)nc3[nH]cc(-c4ccn(C)n4)c23)C1 [Example 86]
d = C=CC(=O)N1CCOC2(CCN(c3nc(Nc4cnn(C)c4)nc4[nH]cc(Cl)c34)C2)C1 (single isomer, unassigned) [Example 112]
Query :: Output the entries ranked by IC50 from maximum down to minimum. Reply: labels, ordered per the request.
Result :: a, c, d, b
(a: 1570 nM, c: 266 nM, d: 63 nM, b: 31 nM)

* * *

Target Or System: EGFR E746-A750 deletion (Homo sapiens, UniProt P00533, DEL746-750)
Sequence (P00533 with tags, fused parts or gaps DEL746-750): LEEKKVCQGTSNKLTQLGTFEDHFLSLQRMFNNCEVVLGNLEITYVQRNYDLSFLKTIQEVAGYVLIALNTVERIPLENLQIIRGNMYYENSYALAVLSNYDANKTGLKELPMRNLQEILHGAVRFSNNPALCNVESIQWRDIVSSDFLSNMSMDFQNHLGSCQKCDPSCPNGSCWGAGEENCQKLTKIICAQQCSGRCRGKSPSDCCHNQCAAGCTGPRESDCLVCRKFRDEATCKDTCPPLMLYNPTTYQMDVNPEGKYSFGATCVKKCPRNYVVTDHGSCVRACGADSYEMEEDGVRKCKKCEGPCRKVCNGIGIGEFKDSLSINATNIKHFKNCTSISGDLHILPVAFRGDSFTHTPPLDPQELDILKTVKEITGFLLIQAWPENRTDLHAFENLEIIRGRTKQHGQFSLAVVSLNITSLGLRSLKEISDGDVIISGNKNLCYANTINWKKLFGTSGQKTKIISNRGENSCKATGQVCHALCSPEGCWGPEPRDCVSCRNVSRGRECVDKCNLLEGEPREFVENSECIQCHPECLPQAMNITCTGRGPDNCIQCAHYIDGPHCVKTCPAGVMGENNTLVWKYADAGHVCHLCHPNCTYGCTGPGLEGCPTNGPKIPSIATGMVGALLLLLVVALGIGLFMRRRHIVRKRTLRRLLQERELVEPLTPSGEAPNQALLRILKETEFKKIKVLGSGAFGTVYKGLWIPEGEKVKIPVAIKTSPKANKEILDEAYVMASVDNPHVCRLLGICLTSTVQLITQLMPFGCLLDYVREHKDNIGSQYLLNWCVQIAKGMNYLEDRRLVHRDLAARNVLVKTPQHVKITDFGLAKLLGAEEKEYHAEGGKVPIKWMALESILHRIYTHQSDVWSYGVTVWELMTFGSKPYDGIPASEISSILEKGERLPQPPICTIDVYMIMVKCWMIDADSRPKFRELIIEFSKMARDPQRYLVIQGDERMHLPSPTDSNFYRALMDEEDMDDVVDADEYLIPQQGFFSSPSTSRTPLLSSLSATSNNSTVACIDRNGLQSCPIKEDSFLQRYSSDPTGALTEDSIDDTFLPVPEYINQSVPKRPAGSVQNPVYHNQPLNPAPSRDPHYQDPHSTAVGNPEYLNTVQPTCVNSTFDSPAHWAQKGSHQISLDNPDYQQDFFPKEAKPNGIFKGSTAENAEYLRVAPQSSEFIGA
Assay Comment: pEGFR Y1068 ELISA assay, NIH3T3/EGFR_E746-A750 deletion cells;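 also: sandwich ELISA on cell lysates detecting phospho-EGFR at Tyr1068, compounds run as 11-point threefold dilution series in duplicate, IC50 from inhibition of this phosphorylation signal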
Applied Conditions: 3T3 Del cells, 2 hrs compound treatment; read-out: ELISA7E 3T3 Del IC50
Experimental Endpoint: IC50 (nM)

Memo: C=CC(=O)N(C)[C@H]1C[C@H](Oc2nc(Nc3cnn(C)c3)nc3[nH]cc(Cl)c23)C1 [Example 108] , reported IC50: 81

Record C=CS(=O)(=O)N1CCc2c(Oc3nc(Nc4cnn(C)c4)nc4[nH]ccc34)cccc21 [Example 44] , field IC50: 90

Form field IC50, entry C=CC(=O)N[C@H]1C[C@H](Oc2nc(Nc3cnn(C)c3)nc3[nH]cc(Cl)c23)C1 [Example 63] : 1220

A = C=CC(=O)N1C[C@H](COc2nc(Nc3cn(C)nc3CC)nc3[nH]cc(F)c23)[C@@H](OC)C1 [Example 68]
B = C=CC(=O)N1CC[C@@H](Oc2nc(Nc3cnn(C)c3)nc3[nH]cc(C#N)c23)C1 [Example 20]
C = C=CC(=O)Nc1cccc(Oc2nc(Nc3cn(C)nc3C(F)(F)F)nc3[nH]ccc23)c1 [Example 32]
Query :: Order the 3 compounds from highest to lowest IC50. Please reply with the labels ordered as requested. Many thanks.
Result :: B, A, C

1 = C=CC(=O)N1CCc2c(Oc3nc(Nc4ccn(C)n4)nc4[nH]ccc34)cccc21 [Example 29]
2 = C=CC(=O)N1C[C@@H]2CN(c3nc(Nc4cnn(C)c4)nc4[nH]cc(Cl)c34)C[C@@H]2C1 [Example 71]
Query :: Out of 1 and 2 , name the one with the higher IC50. Pick one and reply with its label.
Result :: 2

1 = C=CC(=O)Nc1cccc(Oc2nc(Nc3ccn(C)n3)nc3[nH]cc(C#N)c23)c1 [Example 36]
2 = C=CC(=O)Nc1cccc(Oc2nc(Nc3cn(C)nc3C)nc3[nH]ccc23)c1 [Example 30]
Query :: Which has the higher IC50, 1 or 2 ? Refer to your chosen entry by its label in the reply.
Result :: 1
(1: 45 nM, 2: 25 nM)

* * *

Tested on: NIH3T3/EGFR_E746-A750_deletion
Assay Comment: Cell proliferation assay (CellTiter-Glo), NIH3T3/EGFR_E746-A750_deletion
Format: cell-based
Applied Conditions: Mus musculus, NIH3T3, 120 h, 3T3 cell line, three to five days of compound treatment, read-out: 3T3 del IC50
pIC50: −log10 of the molar value.
The entries below come with measured pIC50 values attached.

// returns pIC50 for `C=CC(=O)N[C@H]1C[C@H](Oc2nc(Nc3cnn(C)c3)nc3[nH]cc(Cl)c23)C1` with NIH3T3/EGFR_E746-A750_deletion; value = < 6.00

Continuing:
The measured pIC50 that `C=CC(=O)N1CC[C@@H](COc2nc(Nc3cnn(C)c3)nc3[nH]cc(Cl)c23)C1` showed for NIH3T3/EGFR_E746-A750_deletion is > 8.00

Kindly note: NIH3T3/EGFR_E746-A750_deletion, `C=CC(=O)N[C@H]1CC[C@@H](Oc2nc(Nc3cnn(C)c3)nc3[nH]cc(Cl)c23)C1` , pIC50 value reported: < 6.00

Item `C=CC(=O)N(C)[C@H]1C[C@H](Oc2nc(Nc3cnn(C)c3)nc3[nH]cc(Cl)c23)C1` ; assay system NIH3T3/EGFR_E746-A750_deletion; pIC50 reported as 7.00 to 8.00

Item `C=CC(=O)Nc1cccc(Oc2nc(Nc3ccn(C)n3)nc3[nH]cc(C#N)c23)c1` was tested on NIH3T3/EGFR_E746-A750_deletion; the reported pIC50 is 7.00 to 8.00

Item: `C=CC(=O)Nc1cccc(Oc2nc(Nc3ccn(C)n3)nc3[nH]cc(Cl)c23)c1` | System: NIH3T3/EGFR_E746-A750_deletion | pIC50: 7.00 to 8.00

Readout pIC50 for `C=CC(=O)N[C@@H]1CCCN(c2nc(Nc3cnn(C)c3)nc3[nH]cc(Cl)c23)C1` , test system NIH3T3/EGFR_E746-A750_deletion, was < 6.00

// pIC50 (NIH3T3/EGFR_E746-A750_deletion) for `C=CC(=O)Nc1cccc(Oc2nc(Nc3ccn(CC)n3)nc3[nH]ccc23)c1` = > 8.00

pIC50 value, target or system NIH3T3/EGFR_E746-A750_deletion, for `C=CC(=O)Nc1cccc(Oc2nc(Nc3cn(C)nc3C(F)(F)F)nc3[nH]ccc23)c1` : 7.00 to 8.00

NIH3T3/EGFR_E746-A750_deletion data for `C=CC(=O)N1C[C@H](COC)[C@@H](COc2nc(Nc3cnn(C)c3)nc3[nH]cc(Cl)c23)C1` ; its pIC50: 7.00 to 8.00

// pIC50 (NIH3T3/EGFR_E746-A750_deletion) for C=CC(=O)N1CCOC2(CCN(c3nc(Nc4cnn(C)c4)nc4[nH]cc(Cl)c34)C2)C1 (stereo not shown) = 6.00 to 7.00

Result for C=CC(=O)N1C[C@H](COc2nc(Nc3cnn(C)c3)nc3[nH]cc(Cl)c23)[C@@H]([C@H](C)O)C1 (single isomer, unassigned) , tested on NIH3T3/EGFR_E746-A750_deletion, pIC50: 6.00 to 7.00

Entry `C=CC(=O)Nc1cccc(Oc2nc(Nc3cnn(C(C)C)c3)nc3[nH]ccc23)c1` ; assay system NIH3T3/EGFR_E746-A750_deletion; pIC50 recorded at 7.00 to 8.00

* * *

Target Or System: EGFR L858R (Homo sapiens, UniProt P00533, L858R)
Sequence (P00533 25-1210 L858R): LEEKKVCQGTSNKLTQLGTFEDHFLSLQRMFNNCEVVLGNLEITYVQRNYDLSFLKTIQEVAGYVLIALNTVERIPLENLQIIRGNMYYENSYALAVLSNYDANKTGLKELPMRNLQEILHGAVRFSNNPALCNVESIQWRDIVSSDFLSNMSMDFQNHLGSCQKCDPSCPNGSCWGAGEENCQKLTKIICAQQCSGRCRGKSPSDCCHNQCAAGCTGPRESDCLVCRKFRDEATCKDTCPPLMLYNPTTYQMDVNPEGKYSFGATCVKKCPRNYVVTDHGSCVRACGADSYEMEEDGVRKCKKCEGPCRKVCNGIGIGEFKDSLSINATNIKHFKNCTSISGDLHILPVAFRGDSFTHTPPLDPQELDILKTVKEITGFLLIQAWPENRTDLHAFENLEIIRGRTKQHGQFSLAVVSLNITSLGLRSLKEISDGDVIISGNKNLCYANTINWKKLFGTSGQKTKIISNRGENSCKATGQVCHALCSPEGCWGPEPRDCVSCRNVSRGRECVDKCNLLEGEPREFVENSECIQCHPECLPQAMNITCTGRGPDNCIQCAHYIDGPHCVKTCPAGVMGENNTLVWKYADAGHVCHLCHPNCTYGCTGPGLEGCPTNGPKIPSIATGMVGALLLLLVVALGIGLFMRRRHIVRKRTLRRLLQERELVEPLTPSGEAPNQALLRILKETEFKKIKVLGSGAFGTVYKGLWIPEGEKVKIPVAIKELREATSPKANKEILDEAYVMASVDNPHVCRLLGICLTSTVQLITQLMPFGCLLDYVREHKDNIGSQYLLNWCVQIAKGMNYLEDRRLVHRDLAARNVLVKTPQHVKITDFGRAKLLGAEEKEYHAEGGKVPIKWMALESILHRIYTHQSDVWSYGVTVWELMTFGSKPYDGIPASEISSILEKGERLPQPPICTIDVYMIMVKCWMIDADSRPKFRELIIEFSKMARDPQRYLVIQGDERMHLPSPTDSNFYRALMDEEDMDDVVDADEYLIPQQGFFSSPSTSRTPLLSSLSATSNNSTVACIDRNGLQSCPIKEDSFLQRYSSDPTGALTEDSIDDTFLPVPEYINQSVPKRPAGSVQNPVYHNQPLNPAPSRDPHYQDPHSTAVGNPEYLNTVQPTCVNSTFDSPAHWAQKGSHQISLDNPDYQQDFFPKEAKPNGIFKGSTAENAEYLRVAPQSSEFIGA
Assay Comment: pEGFR Y1068 ELISA assay, NIH3T3/EGFR_L858R cells;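 also: sandwich ELISA of phospho-EGFR Tyr1068 in lysates of stably transfected NIH/3T3 pools after 2 h compound exposure at 37 °C, 11-point threefold dilution series run in duplicate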
Applied Conditions: 3T3 cell line, 2 hrs compound treatment; read-out: pEGFRY1068 ELISA3T3 L858R IC50
pIC50: −log10 of the molar value.
Experimental Endpoint: pIC50

Consider the worked cases shown below.
Reported pIC50 of C=CC(=O)Nc1cccc(Oc2nc(Nc3cnn(C4CCN(C)C4)c3)nc3[nH]ccc23)c1 (centres unmarked) : 6.77

GET /value?item= `C=CC(=O)N1C[C@@H]2CN(c3nc(Nc4cnn(C)c4)nc4[nH]cc(Cl)c34)C[C@@H]2C1` &field=pIC50 returns 6.84

Quick note, pIC50 for `C=CC(=O)Nc1cccc(Oc2nc(Nc3cnn(C)c3)nc3[nH]cc(-c4cccnc4)c23)c1` landed at 7.60

Sure, the documented pIC50 for `C=CC(=O)N1CCO[C@@H](COc2nc(Nc3cnn(C)c3)nc3[nH]ccc23)C1` is 5.69

Reported pIC50 ( `C=CC(=O)N1CC(COc2nc(Nc3cnn(C)c3)nc3[nH]ccc23)C1` ) = 5.60

1 = C=CC(=O)Nc1cccc(Oc2nc(Nc3ccn(CC)n3)nc3[nH]ccc23)c1
2 = C=CC(=O)N[C@H]1C[C@@H](Oc2nc(Nc3cnn(C)c3)nc3[nH]cc(-c4cccnc4)c23)C1
Query :: Pick one: 1 or 2 . Which has the bigger pIC50 number? Return value: the label identifying the chosen record.
Result :: 1
